molecular target: T1, human TrkA receptor on the cell surface (human, UniProt P04629 33-796); test: flow cytometry on TF-1 cells, 4 µg/ml; parameters: reference not given here
T1 construct: whole, on cells; PC12-hTrkA: high density; also called hTrkA; huTrkA
T1 sequence (P04629 33-796): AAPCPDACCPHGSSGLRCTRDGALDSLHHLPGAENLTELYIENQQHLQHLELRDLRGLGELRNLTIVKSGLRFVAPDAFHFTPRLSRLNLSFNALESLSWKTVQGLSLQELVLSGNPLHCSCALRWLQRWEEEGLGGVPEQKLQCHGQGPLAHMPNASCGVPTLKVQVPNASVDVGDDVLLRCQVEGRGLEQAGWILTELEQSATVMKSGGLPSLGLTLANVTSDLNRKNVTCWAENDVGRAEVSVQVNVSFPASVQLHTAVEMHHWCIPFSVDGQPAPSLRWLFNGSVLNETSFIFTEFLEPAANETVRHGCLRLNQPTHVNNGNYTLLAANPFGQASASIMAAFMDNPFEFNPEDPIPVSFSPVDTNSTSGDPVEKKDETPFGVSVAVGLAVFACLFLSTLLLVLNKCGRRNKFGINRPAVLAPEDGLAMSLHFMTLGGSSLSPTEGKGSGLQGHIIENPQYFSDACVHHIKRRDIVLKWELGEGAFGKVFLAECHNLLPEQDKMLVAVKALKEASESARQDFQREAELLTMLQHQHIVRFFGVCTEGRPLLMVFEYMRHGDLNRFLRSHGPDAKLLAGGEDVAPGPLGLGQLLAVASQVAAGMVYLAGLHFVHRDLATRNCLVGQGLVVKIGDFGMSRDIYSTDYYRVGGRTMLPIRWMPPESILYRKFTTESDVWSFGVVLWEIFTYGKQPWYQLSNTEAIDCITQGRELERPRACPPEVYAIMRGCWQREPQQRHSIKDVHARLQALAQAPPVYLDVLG
quantityKind: Geo Mean Fluorescence

binder | quantityKind | endpointValue
BXhVH1VL2 (antibody, human IgG1, V domains shown, Human IgG1 constant regions (IgG1 expression vectors); COS-7 supernatant; also called hVH1/hVL2) VH: EVKLLESGGGLVQPGGSLRLSCAASGFTFSTYTMSWVRQTPGKGLEWVAYISKGGGSTYYPDTVKGRFTISRDNSKNTLYLQMNSLRAEDTAVYYCAKGAMYGNDFFYPMDYWGQGTTVTVSS VL: EIVLTQSPATLSLSPGERATLSCSASSSVSYMHWYQQKPGQSPRLLIYTTSNLASGIPSRFSGSGSGTDFTLTISSLEPEDAADYYCHQWSSYPWTFGQGTKLEIK | Geo Mean Fluorescence | 4.6
BXhVH3VL7 (antibody, human IgG1, V domains shown, Human IgG1 constant regions (IgG1 expression vectors); COS-7 supernatant; also called hVH3/hVL7) VH: EVQLLESGGGLVQPGGSLRLSCAASGFTFSTYTMSWVRQAPGKRLEWVAYISKGGGSTYYPDTVKGRFTISRDNSKNTLYLQMNSLRAEDTAVYYCARGAMYGNDFFYPMDYWGQGTTVTVSS VL: QIVLTQSPATLSLSPGERATLSCSASSSVSYMHWYQQKPGQSPRLLIYTTSNLASGIPSRFSGSGSGTFYTLTISSLEPEDAADYYCHQWSSYPWTFGGGTKLEIK | Geo Mean Fluorescence | 7.1
BXhVH5VL7 (antibody, human IgG1, V domains shown, Human IgG1 constant regions (IgG1 expression vectors); COS-7 supernatant; also called hVH5/hVL7) VH: EVKLLESGGGLVQPGGSLRLSCAASGFTFSTYTMSWVRQTPGKRLEWVAYISKGGGSTYYPDTVKGRFTISRDNSKNTLYLQMNSLRAEDTAVYYCARGAMYGNDFFYPMDYWGQGTTVTVSS VL: QIVLTQSPATLSLSPGERATLSCSASSSVSYMHWYQQKPGQSPRLLIYTTSNLASGIPSRFSGSGSGTFYTLTISSLEPEDAADYYCHQWSSYPWTFGGGTKLEIK | Geo Mean Fluorescence | 8.6
BXhVH3VL8 (antibody, human IgG1, V domains shown, Human IgG1 constant regions (IgG1 expression vectors); COS-7 supernatant; also called hVH3/hVL8) VH: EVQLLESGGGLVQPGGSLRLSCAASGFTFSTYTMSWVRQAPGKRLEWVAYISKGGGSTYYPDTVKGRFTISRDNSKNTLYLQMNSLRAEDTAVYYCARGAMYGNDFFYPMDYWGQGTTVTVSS VL: QIVLTQSPATLSLSPGEEATLSCSASSSVSYMHWYQQKSGTSPRLLIYTTSNLASGIPSRFSGSGSGTFYTLTISSLEPEDAADYYCHQWSSYPWTFGGGTKLEIK | Geo Mean Fluorescence | 6.5
BXhVH3VL1 (antibody, human IgG1, V domains shown, Human IgG1 constant regions (IgG1 expression vectors); COS-7 supernatant; also called hVH3/hVL1) VH: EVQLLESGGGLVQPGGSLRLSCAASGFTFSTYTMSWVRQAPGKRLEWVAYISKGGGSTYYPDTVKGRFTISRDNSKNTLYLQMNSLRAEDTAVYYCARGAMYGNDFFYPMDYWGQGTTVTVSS VL: EIVLTQSPATLSLSPGERATLSCSASSSVSYMHWYQQKPGQAPRLLIYTTSNLASGIPARFSGSGSGTDFTLTISSLEPEDFAVYYCHQWSSYPWTFGQGTKLEIK | Geo Mean Fluorescence | 8.6
